- Tested on: ER-alpha MCF7
- assay-comment: ER-alpha MCF7 HCS EC50; stated as measured by in vitro cell proliferation assays of Examples 902 and 903
- Type: cell-based
- condition-notes: Homo sapiens, MCF7, MCF7 cells; Table 2
quantity-kind: EC50
Report as: number unit

Look over these answered cases.
compound-structure-string | result
C[C@@H]1Cc2c([nH]c3cc(F)ccc23)[C@@H](c2c(F)cc(NC3CN(CCCF)C3)cc2F)N1CC(F)(F)CO | 0.021 nM
C[C@@H]1Cc2c([nH]c3ccccc23)[C@@H](c2c(F)cc(OC3CN(CCCF)C3)cc2F)N1CC1(CO)CC1 | 1 nM
C[C@@H]1Cc2c([nH]c3ccccc23)[C@@H](c2c(F)cc(NC3CN(CCCF)C3)cc2F)N1CC(F)F | 0.065 nM

GET /value?item= C[C@@H]1Cc2c([nH]c3ccccc23)[C@@H](c2cnn(CC3CN(CCCF)C3)c2)N1CC(C)(C)F &field=EC50 returns 0.99 nM
